pIC50: −log10 of the molar value.
Below are pIC50 measurements against Tyrosine-protein kinase JAK1 (Homo sapiens) drawn from the literature.
Sequence (P23458 whole entry): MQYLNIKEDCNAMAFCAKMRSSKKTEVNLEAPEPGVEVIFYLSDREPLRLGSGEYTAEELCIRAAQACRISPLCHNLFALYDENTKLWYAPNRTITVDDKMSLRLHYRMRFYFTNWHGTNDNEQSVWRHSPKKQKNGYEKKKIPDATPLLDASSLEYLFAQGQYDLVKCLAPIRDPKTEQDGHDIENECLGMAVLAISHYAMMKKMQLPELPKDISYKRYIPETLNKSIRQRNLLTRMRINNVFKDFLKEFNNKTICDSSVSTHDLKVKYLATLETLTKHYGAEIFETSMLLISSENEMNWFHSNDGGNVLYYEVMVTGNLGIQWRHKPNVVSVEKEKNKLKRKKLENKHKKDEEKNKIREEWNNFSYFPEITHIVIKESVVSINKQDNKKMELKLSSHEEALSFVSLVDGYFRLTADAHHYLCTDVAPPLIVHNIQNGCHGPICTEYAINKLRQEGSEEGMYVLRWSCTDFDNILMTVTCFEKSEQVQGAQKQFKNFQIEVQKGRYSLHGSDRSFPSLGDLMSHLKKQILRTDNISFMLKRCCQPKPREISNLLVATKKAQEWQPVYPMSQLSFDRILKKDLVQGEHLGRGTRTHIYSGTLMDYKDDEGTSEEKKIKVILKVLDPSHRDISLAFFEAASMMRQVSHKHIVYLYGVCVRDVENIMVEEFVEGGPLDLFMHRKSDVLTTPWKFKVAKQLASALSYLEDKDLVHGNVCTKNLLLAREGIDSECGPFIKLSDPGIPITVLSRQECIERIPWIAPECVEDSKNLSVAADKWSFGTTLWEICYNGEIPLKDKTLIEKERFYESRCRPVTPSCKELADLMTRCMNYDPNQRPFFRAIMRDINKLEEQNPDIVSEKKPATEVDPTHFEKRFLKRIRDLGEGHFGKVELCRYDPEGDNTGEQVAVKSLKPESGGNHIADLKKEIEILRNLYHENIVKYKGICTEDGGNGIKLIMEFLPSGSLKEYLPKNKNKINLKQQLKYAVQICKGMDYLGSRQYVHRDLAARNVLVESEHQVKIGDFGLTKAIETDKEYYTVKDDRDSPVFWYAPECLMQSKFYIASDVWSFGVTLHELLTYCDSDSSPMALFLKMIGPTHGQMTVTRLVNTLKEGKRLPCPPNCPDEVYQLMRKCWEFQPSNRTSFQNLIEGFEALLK

CC(C)=C(C#N)C(=O)Nc1cccc2c(-c3ccnc(NC(=O)C4CC4)c3)n[nH]c12
< 6.00

Find the measured pIC50 of CCC(=O)c1cnc(Nc2ccc(CN3CCN(C)CC3)nn2)cc1Nc1cccc(-c2ncn(C)n2)c1OC with Tyrosine-protein kinase JAK1 (Homo sapiens) as test system.
< 6.30

Find the measured pIC50 of N#CCC(CN1CCN(C(=O)c2ccc(C#N)cc2F)CC1)n1cc(-c2ncnc3[nH]ccc23)cn1 (stereo not drawn) with Tyrosine-protein kinase JAK1 (Homo sapiens) as test system.
> 7.00
